Data provenance: patent US20240067672A1

Tested on: HepG2 hepatoma cells
protocol details: Anti-tumor activity in vitro, MTT method, HepG2
Format: cell-based, human
measurement parameters: Homo sapiens; HepG2, 72 h, MTT; read-out: IC50 HepG2 72 h
metric: IC50

Examples with their reported IC50 follow.
smiles_notation=COc1ccc(-c2oc3c(CC=C(C)C)c(O)cc(O)c3c(=O)c2OC(=O)CCC(=O)OCc2cn([C@H]3O[C@@H](CO)[C@H](O)[C@@H](O)[C@@H]3O)nn2)cc1 tgt="HepG2 hepatoma cells" metric=IC50 reported_value="> 100 µM"
smiles_notation=COc1ccc(-c2oc3c(CC=C(C)C)c(O)cc(O)c3c(=O)c2OC(=O)CCC(=O)OCCOCCOCc2cn([C@H]3O[C@@H](CO)[C@H](O)[C@@H](O)[C@@H]3O)nn2)cc1 tgt="HepG2 hepatoma cells" metric=IC50 reported_value="32.6 µM"
smiles_notation=COc1ccc(-c2oc3c(CC=C(C)C)c(O)cc(O)c3c(=O)c2OC(=O)CCC(=O)OCc2cn(CCOCCO[C@H]3O[C@@H](CO)[C@H](O)[C@@H](O)[C@@H]3O)nn2)cc1 tgt="HepG2 hepatoma cells" metric=IC50 reported_value="10.1 µM"

# per-item lookup of IC50; items listed below
1. COc1ccc(-c2oc3c(CC=C(C)C)c(O)cc(O)c3c(=O)c2OC(=O)CCC(=O)OCCOCCOCCOCc2cn(CCO[C@H]3O[C@@H](CO)[C@H](O)[C@@H](O)[C@@H]3O)nn2)cc1
2. COc1ccc(-c2oc3c(CC=C(C)C)c(O)cc(O)c3c(=O)c2OC(=O)CCC(=O)OCCOCCOCc2cn(CCO[C@@H]3O[C@H](CO)[C@@H](O)[C@H](O)[C@H]3O)nn2)cc1
3. COc1ccc(-c2oc3c(CC=C(C)C)c(O)cc(O)c3c(=O)c2OC(=O)CCC(=O)OCCCOCc2cn(CCO[C@H]3O[C@@H](CO)[C@H](O)[C@@H](O)[C@@H]3O)nn2)cc1

Data returned:
["20 µM", "37.7 µM", "5.56 µM"]
